Assay: Half life in ICR mouse at 5 mg/kg, iv by LC-MS/MS analysis
Format: ADME, organism-based
Details: in vivo
measurementType: half-life (h)
Answers are plain numbers, in h.

Request: For C[C@@](O)(C#Cc1ccc(F)c(-c2c[nH]c3cnc(N)nc23)c1)c1nccs1 , write its half-life.
Result: 3.28

###

For each of the compounds below, state its pIC50.
Target: Mitogen-activated protein kinase kinase kinase 14 (Homo sapiens)
Experiment: Inhibition of recombinant human N-terminal GST-tagged NIK (318 to 947 residues) expressed in baculovirus infected Sf9 cells using ultrapure ATP as substrate measured after 1 hr by ADP-glo assay
One number for each entry, as −log10 of the molar value.

COc1cc(C#CC(C)(O)c2nccs2)cc(-c2c[nH]c3cnc(N)nc23)c1 (stereo not given)    6.54
CC(C)(O)C#Cc1cccc(-c2c[nH]c3cnc(N)nc23)c1    6.14
COc1ccc(-n2ccc3cnc(N)nc32)cc1C#CC(C)(O)c1nccs1 (stereo not given)    5.76
Cc1[nH]c2cnc(N)nc2c1-c1cccc(C#CC(C)(O)c2nccs2)c1 (stereo not given)    5.66
CC(O)(C#Cc1cccc(-c2c[nH]c3cnc(N)nc23)c1)c1nccs1 (stereo not given)    6.66
Nc1ncc2ccn(-c3ccnc(C#CC4(O)CCCCCC4)c3)c2n1    6.13
Nc1ncc2[nH]cc(-c3cccc(C#CC(O)c4nccs4)c3)c2n1 (stereo not given)    5.20

Now consider a different compound.
Request: Provide pIC50, system Mitogen-activated protein kinase kinase kinase 14 (Homo sapiens), entry CC(O)(C#Cc1cncc(-n2ccc3cnc(N)nc32)c1)c1nccs1 (stereo not given)
Result: 5.73

###

Target: Mitogen-activated protein kinase kinase kinase 14 (Homo sapiens, UniProt Q99558)
Sequence (Q99558 whole entry, the tested form may be a part): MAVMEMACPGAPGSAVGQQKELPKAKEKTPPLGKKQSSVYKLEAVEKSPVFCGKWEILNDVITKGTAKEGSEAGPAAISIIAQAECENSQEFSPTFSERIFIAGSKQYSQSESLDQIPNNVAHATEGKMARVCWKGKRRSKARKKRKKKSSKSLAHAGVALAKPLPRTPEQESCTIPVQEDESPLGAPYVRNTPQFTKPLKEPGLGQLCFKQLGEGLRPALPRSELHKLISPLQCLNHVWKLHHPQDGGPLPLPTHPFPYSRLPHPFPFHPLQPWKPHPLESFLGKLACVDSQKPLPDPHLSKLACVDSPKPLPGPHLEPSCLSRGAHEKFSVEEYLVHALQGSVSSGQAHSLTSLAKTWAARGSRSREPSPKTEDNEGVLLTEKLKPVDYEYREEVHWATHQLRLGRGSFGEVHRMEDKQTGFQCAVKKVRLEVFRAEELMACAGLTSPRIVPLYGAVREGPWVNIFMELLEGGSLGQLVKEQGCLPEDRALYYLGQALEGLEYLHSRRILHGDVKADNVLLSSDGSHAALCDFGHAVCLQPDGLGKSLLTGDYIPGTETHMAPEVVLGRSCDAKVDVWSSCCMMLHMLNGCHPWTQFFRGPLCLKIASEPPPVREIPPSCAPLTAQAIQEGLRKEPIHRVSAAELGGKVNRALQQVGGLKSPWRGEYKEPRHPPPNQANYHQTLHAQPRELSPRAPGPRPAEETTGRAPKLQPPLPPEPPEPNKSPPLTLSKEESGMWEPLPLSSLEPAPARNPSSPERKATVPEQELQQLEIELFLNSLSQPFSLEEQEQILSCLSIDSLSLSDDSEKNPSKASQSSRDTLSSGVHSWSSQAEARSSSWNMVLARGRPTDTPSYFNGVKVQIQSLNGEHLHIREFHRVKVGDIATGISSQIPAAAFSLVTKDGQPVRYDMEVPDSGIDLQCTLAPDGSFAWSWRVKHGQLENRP
Assay: Inhibition of recombinant human N-terminal GST-tagged NIK (318 to 947 residues) expressed in baculovirus infected Sf9 cells using ultrapure ATP as substrate measured after 1 hr by ADP-glo assay
measurementType: pIC50
One number for each entry, as −log10 of the molar value.

Field: example entries. Status: answers known.
CC(O)(C#Cc1cccc(-c2c[nH]c3cnc(N)nc23)c1)c1cnccn1 (stereo not given)    6.33
CC(O)(C#Cc1cc(-n2ccc3cnc(N)nc32)ccc1C#N)c1nccs1 (stereo not given)    6.66
Cc1cc(C(C)(O)C#Cc2cc(-n3ccc4cnc(N)nc43)ccn2)no1 (stereo not given)    6.92
Cc1ccc(C#CC(C)(O)c2nccs2)cc1-n1ccc2cnc(N)nc21 (stereo not given)    6.47
CC(O)(C#Cc1cc(C#N)cc(-n2ccc3cnc(N)nc32)c1)c1nccs1 (stereo not given)    5.69

Need pIC50 for each of these compounds.
1. CC(O)(C#Cc1cccc(-c2c[nH]c3cnc(N)nc23)c1)C1CCCCC1 (stereo not given)
2. CN1CCC(O)(C#Cc2cc(-n3ccc4ccc(N)nc43)ccn2)C1=O (stereo not given)
3. CC(O)(C#Cc1cccc(-c2c[nH]c3cnc(N)nc23)c1F)c1nccs1 (stereo not given)

Result:
5.69
5.61
4.96

###

Experiment: Half life in ICR mouse at 15 mg/kg, po by LC-MS/MS analysis
Type: ADME, organism-based
Conditions: in vivo
measurementType: half-life (h)
Numbers only, in h.

Request: For the molecule C[C@@](O)(C#Cc1ccc(F)c(-c2c[nH]c3cnc(N)nc23)c1)c1nccs1 , give its measured half-life value.
Result: 12
